- Experimental system: human glucagon receptor (human) (UniProt P47871)
- Sequence (P47871 26-477): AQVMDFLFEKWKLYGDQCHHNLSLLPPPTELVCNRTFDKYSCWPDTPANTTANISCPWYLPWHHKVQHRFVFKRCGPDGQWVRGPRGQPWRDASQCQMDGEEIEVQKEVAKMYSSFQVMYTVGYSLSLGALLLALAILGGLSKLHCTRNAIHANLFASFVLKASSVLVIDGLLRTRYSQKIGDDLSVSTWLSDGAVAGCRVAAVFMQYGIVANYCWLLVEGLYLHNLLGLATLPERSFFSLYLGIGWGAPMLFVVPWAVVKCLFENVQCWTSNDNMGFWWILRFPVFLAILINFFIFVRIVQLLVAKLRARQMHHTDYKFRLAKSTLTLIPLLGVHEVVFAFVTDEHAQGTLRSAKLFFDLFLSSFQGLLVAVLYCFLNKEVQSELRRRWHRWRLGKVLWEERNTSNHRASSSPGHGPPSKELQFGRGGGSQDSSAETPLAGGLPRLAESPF
- Assay summary: cell-based or functional assay
Property measured: cAMP EC50 (nM)
Dear colleague, please return just the value in nM, with no unit written.

query: GET /values?readout=cAMP EC50&item= IP396 (Fc fusion) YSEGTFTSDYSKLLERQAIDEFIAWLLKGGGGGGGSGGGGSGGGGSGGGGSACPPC
result: 330

query: Another binder to check: IP337 (Fc fusion) YSEGTFISDYSIAMDKIHQQDFVNWLLAQKGGGGGSGGGGSGGGGSGGGGSGGGGSGGGGSGGGGSA
result: 200
